TARGET OR SYSTEM: Alpha-1B adrenergic receptor (Mesocricetus auratus)
Sequence (P18841 whole entry): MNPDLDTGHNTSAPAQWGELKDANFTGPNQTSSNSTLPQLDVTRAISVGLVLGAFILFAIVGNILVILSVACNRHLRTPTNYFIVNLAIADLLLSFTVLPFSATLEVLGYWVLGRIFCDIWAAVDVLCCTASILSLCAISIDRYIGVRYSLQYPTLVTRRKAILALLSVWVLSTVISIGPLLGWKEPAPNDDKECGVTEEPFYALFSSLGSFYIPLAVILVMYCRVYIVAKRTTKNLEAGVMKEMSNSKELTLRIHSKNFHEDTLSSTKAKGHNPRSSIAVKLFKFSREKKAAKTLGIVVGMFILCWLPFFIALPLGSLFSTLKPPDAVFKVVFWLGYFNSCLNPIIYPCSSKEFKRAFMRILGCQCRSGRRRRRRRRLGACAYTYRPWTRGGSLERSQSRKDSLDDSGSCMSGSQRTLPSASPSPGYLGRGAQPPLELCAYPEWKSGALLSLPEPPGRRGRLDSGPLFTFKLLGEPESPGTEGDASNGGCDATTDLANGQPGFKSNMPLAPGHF
ASSAY: In vitro binding affinity using [3H]prazosin as radioligand against alpha-1B adrenergic receptor expressed in LTK cell
Type: cell-based
pKi: −log10 of the molar value.
MEASURED PROPERTY: pKi

[
  {
    "COMPOUND": "COc1cccc2c1CC[C@H]1CN(CCn3c(=O)[nH]c4c(sc5c(C#N)cccc54)c3=O)C[C@@H]21",
    "pKi": 7.57
  },
  {
    "COMPOUND": "COc1cccc2c1CC[C@H]1CN(CCn3c(=O)[nH]c4c(sc5ccc(Cl)cc54)c3=O)C[C@@H]21",
    "pKi": 8.72
  },
  {
    "COMPOUND": "COc1cccc2c1CC[C@H]1CN(CCn3c(=O)[nH]c4c(sc5ncncc54)c3=O)C[C@@H]21",
    "pKi": 7.81
  },
  {
    "COMPOUND": "COc1cnc2sc3c(=O)n(CCN4C[C@@H]5CCc6c(OC)cccc6[C@@H]5C4)c(=O)[nH]c3c2n1",
    "pKi": 8.43
  },
  {
    "COMPOUND": "COc1cccc2c1CC[C@H]1CN(CCn3c(=O)[nH]c4c(sc5ncccc54)c3=O)C[C@@H]21",
    "pKi": 8.21
  }
]

I: COc1cccc2c1CC[C@H]1CN(CCn3c(=O)[nH]c4c(sc5nc(C)c(C)nc54)c3=O)C[C@@H]21
II: COc1ccc2sc3c(=O)n(CCN4C[C@@H]5CCc6c(OC)cccc6[C@@H]5C4)c(=O)[nH]c3c2n1
Identify the item whose pKi is the smaller number: I or II To answer, give the label that identifies your chosen option.
I
(I: 7.86, II: 8.52)

1: COc1cccc2c1CC[C@H]1CN(CCn3c(=O)[nH]c4c(sc5cccc(Cl)c54)c3=O)C[C@@H]21
2: COc1cccc2c1CC[C@H]1CN(CCn3c(=O)[nH]c4c(sc5ncc(-c6ccccc6)nc54)c3=O)C[C@@H]21
3: COc1cccc2c1CC[C@H]1CN(CCn3c(=O)[nH]c4c(sc5cncnc54)c3=O)C[C@@H]21
Task field, ranking: reported pKi, descending order. A ranking is expressed here by listing the labels in the requested order.
1, 3, 2
(1: 8.50, 3: 7.80, 2: 6.92)

1: COc1cccc2c1CC[C@H]1CN(CCn3c(=O)[nH]c4c(sc5ccc(C(N)=O)cc54)c3=O)C[C@@H]21
2: COc1cccc2c1CC[C@H]1CN(CCn3c(=O)[nH]c4c(sc5c(Cl)cccc54)c3=O)C[C@@H]21
3: COc1cccc2c1CCC1CN(CCn3c(=O)[nH]c4c(sc5ccccc54)c3=O)CC21 (stereo in doubt; 21)
Order the records, beginning with the lowest pKi and ending with the highest. A ranking is expressed here by listing the labels in the requested order.
2, 1, 3
(2: 5.91, 1: 8.20, 3: 8.46)

I: COc1cccc2c1CCC1CN(CCn3c(=O)[nH]c4c(sc5ccccc54)c3=O)CC21 (stereo in doubt; 18)
II: COc1cccc2c1CC[C@H]1CN(CCn3c(=O)[nH]c4c(sc5ccncc54)c3=O)C[C@@H]21
# argmax over pKi for candidates I and II To answer, give the label that identifies your chosen option.
I

1: COc1cccc2c1CCC1CN(CCCCn3c(=O)[nH]c4c(sc5ccccc54)c3=O)CC21 (cis isomer)
2: COc1cccc2c1CCC1CN(CCn3c(=O)[nH]c4c(oc5ccccc54)c3=O)CC21 (cis isomer)
Identify the item whose pKi is the smaller number: 1 or 2 To answer, give the label that identifies your chosen option.
1

A: COc1cccc2c1CC[C@H]1CN(CCn3c(=O)[nH]c4c(sc5cccnc54)c3=O)C[C@@H]21
B: COc1cccc2c1CC[C@H]1CN(CCn3c(=O)[nH]c4c(sc5cccc(C)c54)c3=O)C[C@@H]21
C: COc1cccc2c1CC[C@H]1CN(CCn3c(=O)[nH]c4c(sc5ccc(C(=O)N(C)C)cc54)c3=O)C[C@@H]21
D: COc1cccc2c1CC[C@H]1CN(CCn3c(=O)[nH]c4c(sc5c(Cl)ccnc54)c3=O)C[C@@H]21
Order the records, beginning with the lowest pKi and ending with the highest. A ranking is expressed here by listing the labels in the requested order.
D, B, A, C
(D: 7.21, B: 8.16, A: 8.47, C: 8.77)

a: COc1cccc2c1CC[C@H]1CN(CCn3c(=O)[nH]c4c(sc5cccc(OC)c54)c3=O)C[C@@H]21
b: COc1cccc2c1CC[C@H]1CN(CCn3c(=O)[nH]c4c(sc5c(OC)ccnc54)c3=O)C[C@@H]21
c: COc1cccc2c1CC[C@H]1CN(CCn3c(=O)[nH]c4c(sc5nc(C)cnc54)c3=O)C[C@@H]21
d: COc1cccc2c1CC[C@H]1CN(CCn3c(=O)[nH]c4c(sc5cc(C(F)(F)F)ccc54)c3=O)C[C@@H]21
Task field, ranking: reported pKi, descending order. A ranking is expressed here by listing the labels in the requested order.
a, b, c, d

a: COc1cccc2c1CC[C@H]1CN(CCn3c(=O)[nH]c4c(sc5ccc(C)cc54)c3=O)C[C@@H]21
b: COc1cccc2c1CC[C@H]1CN(CCn3c(=O)[nH]c4c(sc5ccc([N+](=O)[O-])cc54)c3=O)C[C@@H]21
c: COc1cccc2c1CC[C@H]1CN(CCn3c(=O)[nH]c4c(sc5nc(-c6ccccc6)cnc54)c3=O)C[C@@H]21
Task field, ranking: reported pKi, descending order. A ranking is expressed here by listing the labels in the requested order.
a, b, c
